Tested on: chickweed
Assay: Test C preemergence/postemergence greenhouse plant response rating 0 to 100
Type: in vivo, Stellaria media
Details: Rate 16 g/ha; POSTEMERGENCE
The entries below are paired with their reported Plant response rating (0 to 100), Chickweed.
Answer with a number only.

A selection of reference data follows.
Fc1cc(Cl)c(OCCCl)cc1-c1nn2c(c1Cl)CCCC2 [Compound 49] | 50
C#CC(C)N1C(=O)COc2cc(F)c(-c3nn4c(c3Cl)CCCC4)cc21 (centres unmarked) [Compound 50] | 80

Query string: Form field: reported Plant response rating (0 to 100), Chickweed of C#CCOc1cc(-c2nn3c(c2Br)CCCC3)c(F)cc1Cl [Compound 26]
Result string: 80

Query string: Form field: reported Plant response rating (0 to 100), Chickweed of C#CC(C)Oc1cc(-c2nn3c(c2Cl)CCCC3)c(F)cc1Cl (centres unmarked) [Compound 36]
Result string: 70

Query string: Form field: reported Plant response rating (0 to 100), Chickweed of COc1cc(-c2nn3c(c2Cl)CCCC3)c(F)cc1Cl [Compound 29]
Result string: 40
